Where do these numbers come from? They come from patent US9403798B2.

molecular target: Human T-type calcium channel (Cav 3.2) (Homo sapiens); construct: Edward Perez-Reyes, University of Virginia, USA; assay: Calcium Influx Inhibition Assay; conditions: Human T-type calcium channel (Cav 3.2) expressing HEK293 cells, FLIPR Calcium 4 fluorescence
pIC50: −log10 of the molar value.
MEASURED PROPERTY: pIC50

MOLECULE: COC1CN(c2ncn(Cc3ccc(C(F)(F)F)s3)c(=O)n2)CC=C1c1ccc(F)cc1 (stereo not shown) [compound 475]
OBS VALUE: 7.41
//
MOLECULE: O=c1nc(Nc2nc(-c3ccc(F)c(F)c3)cs2)ncn1Cc1ccc(Cl)cc1 [compound 130]
OBS VALUE: 7.11
//
MOLECULE: O=c1nc(N2CC=C(c3ccc(F)cc3)C(O)C2)ncn1Cn1ccc(C(F)(F)C(F)(F)F)n1 (stereo not shown) [compound 194]
OBS VALUE: 8.00
//
MOLECULE: O=c1nc(N2CC=C(c3ccc(F)cc3)CC2)ncn1Cc1ccc(C2CC2)s1 [compound 479]
OBS VALUE: 7.18

---

Target: Human T-type calcium channel (Cav 3.2) (Homo sapiens)
Construct: Edward Perez-Reyes, University of Virginia, USA
Assay: Calcium Influx Inhibition Assay
Conditions: Human T-type calcium channel (Cav 3.2) expressing HEK293 cells, FLIPR Calcium 4 fluorescence
Procedure: 1. Calcium Influx Inhibition Assay Human T-type calcium channel (Cav 3.2) expressing HEK293 cells were obtained from Prof. Edward Perez-Reyes, University of Virginia, USA. The calcium-sensitive fluorescent dye used was FLIPR Calcium 4 Assay Kit (Molecular Devices). […] While fluorescence was continuously analyzed from the bottom with a FlexStation 3 (Molecular Devices), a calcium solution was added. […] From the rise in the fluorescence from the base line, the inhibition percentage was calculated. […]
pIC50: −log10 of the molar value.

SMILES RECORD: CC(C)(C)OC(=O)N1C[C@@H](CNc2ncn(Cc3ccc(C(F)(F)F)s3)c(=O)n2)[C@H](c2ccc(F)cc2)C1
pIC50: 6.26
--
SMILES RECORD: Cc1nc(N2CC=C(c3ccc(F)cc3)[C@@H](N)C2)nc(=O)n1Cc1ccc(C(F)(F)F)s1
pIC50: 8.35
--
SMILES RECORD: Cc1ccc(C2=CCN(c3nc(C)n(Cc4ccc(C(F)(F)F)s4)c(=O)n3)C[C@@H]2O)cc1F
pIC50: 8.96
--
SMILES RECORD: O=c1nc(N2CC=C(c3ccc(F)cc3)CC2)ncn1Cc1ccc(OCC(F)(F)F)cc1
pIC50: 7.17

---

# IC50 per entry
Target: Human T-type calcium channel (Cav 3.2) (Homo sapiens, UniProt O95180)
Construct: Edward Perez-Reyes, University of Virginia, USA
Sequence (O95180 whole entry): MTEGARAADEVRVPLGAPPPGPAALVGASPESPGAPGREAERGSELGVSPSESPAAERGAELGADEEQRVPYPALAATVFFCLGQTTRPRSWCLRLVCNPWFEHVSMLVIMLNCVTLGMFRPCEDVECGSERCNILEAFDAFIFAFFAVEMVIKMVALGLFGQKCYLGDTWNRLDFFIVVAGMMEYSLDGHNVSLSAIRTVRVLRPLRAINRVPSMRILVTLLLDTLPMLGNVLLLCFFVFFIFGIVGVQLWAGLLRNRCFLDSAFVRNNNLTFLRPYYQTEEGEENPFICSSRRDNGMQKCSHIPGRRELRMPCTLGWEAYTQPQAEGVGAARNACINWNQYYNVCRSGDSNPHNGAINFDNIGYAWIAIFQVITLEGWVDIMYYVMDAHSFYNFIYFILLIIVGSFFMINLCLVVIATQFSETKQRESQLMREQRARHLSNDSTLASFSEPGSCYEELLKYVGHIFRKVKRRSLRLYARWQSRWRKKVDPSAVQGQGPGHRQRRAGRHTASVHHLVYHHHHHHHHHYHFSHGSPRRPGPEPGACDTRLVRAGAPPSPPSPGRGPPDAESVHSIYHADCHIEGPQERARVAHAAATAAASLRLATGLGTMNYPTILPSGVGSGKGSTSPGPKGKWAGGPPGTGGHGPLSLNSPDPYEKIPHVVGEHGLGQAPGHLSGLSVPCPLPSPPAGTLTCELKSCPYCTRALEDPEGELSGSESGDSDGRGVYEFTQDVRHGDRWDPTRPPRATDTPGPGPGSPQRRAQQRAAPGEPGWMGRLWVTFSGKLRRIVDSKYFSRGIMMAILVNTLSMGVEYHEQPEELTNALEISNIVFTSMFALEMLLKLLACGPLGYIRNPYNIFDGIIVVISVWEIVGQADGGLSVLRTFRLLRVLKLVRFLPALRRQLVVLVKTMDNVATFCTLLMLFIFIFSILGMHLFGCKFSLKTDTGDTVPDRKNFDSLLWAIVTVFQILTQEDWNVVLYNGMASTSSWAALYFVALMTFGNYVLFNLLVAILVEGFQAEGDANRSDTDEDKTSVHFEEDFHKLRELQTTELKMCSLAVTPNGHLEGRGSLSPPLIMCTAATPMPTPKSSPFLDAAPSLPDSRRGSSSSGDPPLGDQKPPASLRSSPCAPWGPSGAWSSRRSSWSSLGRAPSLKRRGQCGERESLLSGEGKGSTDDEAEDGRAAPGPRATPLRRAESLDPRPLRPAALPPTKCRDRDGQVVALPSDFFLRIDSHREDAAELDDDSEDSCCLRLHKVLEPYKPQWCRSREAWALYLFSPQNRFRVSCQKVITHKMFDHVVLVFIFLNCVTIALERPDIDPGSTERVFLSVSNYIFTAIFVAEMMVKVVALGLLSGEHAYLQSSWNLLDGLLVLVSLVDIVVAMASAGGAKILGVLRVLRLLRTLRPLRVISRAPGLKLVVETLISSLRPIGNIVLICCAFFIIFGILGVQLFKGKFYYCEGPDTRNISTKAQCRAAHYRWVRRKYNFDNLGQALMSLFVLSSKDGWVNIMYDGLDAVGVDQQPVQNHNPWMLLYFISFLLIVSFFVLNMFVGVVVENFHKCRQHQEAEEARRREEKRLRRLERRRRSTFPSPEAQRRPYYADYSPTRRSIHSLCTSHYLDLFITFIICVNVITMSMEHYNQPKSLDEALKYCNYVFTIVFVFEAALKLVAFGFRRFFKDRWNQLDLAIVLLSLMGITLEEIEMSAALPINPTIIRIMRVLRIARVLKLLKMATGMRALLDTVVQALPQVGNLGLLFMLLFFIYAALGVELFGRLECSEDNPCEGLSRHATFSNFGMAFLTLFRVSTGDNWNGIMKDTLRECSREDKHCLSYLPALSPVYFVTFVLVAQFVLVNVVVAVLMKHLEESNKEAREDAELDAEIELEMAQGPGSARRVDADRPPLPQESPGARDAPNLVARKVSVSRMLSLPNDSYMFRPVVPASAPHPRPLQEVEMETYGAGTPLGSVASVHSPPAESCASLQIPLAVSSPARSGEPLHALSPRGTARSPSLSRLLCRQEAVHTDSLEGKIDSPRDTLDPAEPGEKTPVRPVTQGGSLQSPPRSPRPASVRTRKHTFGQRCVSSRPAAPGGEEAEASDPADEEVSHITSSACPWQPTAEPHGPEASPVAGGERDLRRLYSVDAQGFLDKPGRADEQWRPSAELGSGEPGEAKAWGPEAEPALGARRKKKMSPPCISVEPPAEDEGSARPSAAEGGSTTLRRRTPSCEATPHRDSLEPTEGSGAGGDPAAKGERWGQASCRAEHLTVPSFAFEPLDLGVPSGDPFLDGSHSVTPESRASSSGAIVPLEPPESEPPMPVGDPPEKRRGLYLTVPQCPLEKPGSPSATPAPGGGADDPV
Test: Calcium Influx Inhibition Assay
Settings: Human T-type calcium channel (Cav 3.2) expressing HEK293 cells, FLIPR Calcium 4 fluorescence
Experimental: 1. Calcium Influx Inhibition Assay Human T-type calcium channel (Cav 3.2) expressing HEK293 cells were obtained from Prof. Edward Perez-Reyes, University of Virginia, USA. The calcium-sensitive fluorescent dye used was FLIPR Calcium 4 Assay Kit (Molecular Devices). […] While fluorescence was continuously analyzed from the bottom with a FlexStation 3 (Molecular Devices), a calcium solution was added. […] From the rise in the fluorescence from the base line, the inhibition percentage was calculated. […]

COMPOUND: Cc1nc(N2CCC(c3ccc(F)cc3)C(CO)(CO)C2)nc(=O)n1Cc1ccc(C(F)(F)F)s1 (stereo not shown)
TEST SYSTEM: Human T-type calcium channel (Cav 3.2) (Homo sapiens, UniProt O95180)
IC50 (nM): 410
--
COMPOUND: O=c1nc(N2CC=C(c3ccc(F)cc3)[C@@H](O)C2)ncn1Cc1ccc(C(F)(F)F)s1
TEST SYSTEM: Human T-type calcium channel (Cav 3.2) (Homo sapiens, UniProt O95180)
IC50 (nM): 0.46
--
COMPOUND: COc1nc(C2=CCN(c3nc(C)n(Cc4ccc(OS(=O)(=O)C(F)(F)F)nc4)c(=O)n3)C[C@@H]2O)ccc1Cl
TEST SYSTEM: Human T-type calcium channel (Cav 3.2) (Homo sapiens, UniProt O95180)
IC50 (nM): 46
--
COMPOUND: N#Cc1cc(C2=CCN(c3ncn(Cc4ccc(C(F)(F)F)s4)c(=O)n3)CC2)ccc1F
TEST SYSTEM: Human T-type calcium channel (Cav 3.2) (Homo sapiens, UniProt O95180)
IC50 (nM): 45
--
COMPOUND: O=c1nc(N2CCN(c3ccc(F)cc3)CC2)ncn1Cc1ccc(Cl)cc1
TEST SYSTEM: Human T-type calcium channel (Cav 3.2) (Homo sapiens, UniProt O95180)
IC50 (nM): 170
--
COMPOUND: O=c1nc(NCC2CC2c2ccc(F)cc2)ncn1Cc1ccc(C(F)(F)F)s1 (single isomer, unassigned)
TEST SYSTEM: Human T-type calcium channel (Cav 3.2) (Homo sapiens, UniProt O95180)
IC50 (nM): 170
--
COMPOUND: Cc1cc(C2=CCN(c3ncn(Cc4ccc(C(F)(F)F)s4)c(=O)n3)CC2)sn1
TEST SYSTEM: Human T-type calcium channel (Cav 3.2) (Homo sapiens, UniProt O95180)
IC50 (nM): 30
